Molecular target: human GLP-1R (Homo sapiens, UniProt P43220, G168S)
Sequence (P43220 24-463 G168S limits assumed): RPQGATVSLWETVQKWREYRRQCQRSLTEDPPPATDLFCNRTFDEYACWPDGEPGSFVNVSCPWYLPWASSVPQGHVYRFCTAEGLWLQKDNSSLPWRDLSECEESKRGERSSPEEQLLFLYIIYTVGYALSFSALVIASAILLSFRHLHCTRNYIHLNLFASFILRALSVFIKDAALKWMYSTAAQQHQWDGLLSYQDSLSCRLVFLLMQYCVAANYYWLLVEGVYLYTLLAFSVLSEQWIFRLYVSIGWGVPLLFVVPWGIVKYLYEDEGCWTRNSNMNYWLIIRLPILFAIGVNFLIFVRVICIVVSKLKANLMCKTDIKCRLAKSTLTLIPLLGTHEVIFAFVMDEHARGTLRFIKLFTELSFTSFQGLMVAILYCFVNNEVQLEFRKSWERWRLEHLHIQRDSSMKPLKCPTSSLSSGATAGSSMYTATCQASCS
Assay: CHO GLP-1R Clone H6—Assay 1: HTRF cAMP cell-based functional agonist assay (high GLP-1R density)
Details: read-out: Assay 1 EC50; CHO GLP-1R Clone H6, cAMP HTRF; geometric mean
Where a name gives a salt, the structure may show the parent alone.
OBSERVED_PROPERTY: pEC50
Please express pEC50 as -log10 of the molar concentration.

Data request: Which pEC50 value is on record for COCCn1c(CN2CCC(c3cccc(OCc4ccc(Cl)cc4F)n3)CC2)nc2ncc(C(=O)O)cc21 [Example 2A-02, hydrochloride] ?
Data returned: 8.10

Data request: Would you mind doing O=C(O)c1ccc2nc(CN3CCC(c4cccc(OCc5ccc(Cl)cc5F)n4)CC3)n(Cc3cnoc3)c2c1 [Example 10A-68] as well?
Data returned: 6.85

Data request: And what about the compound CC(F)(F)Cn1c(CN2CCC(c3cccc(OCc4ccc(Cl)cc4F)n3)CC2)nc2ccc(C(=O)O)cc21 [Example 11A-27] ?
Data returned: 7.36

Data request: Item: Cn1cncc1Cn1c(CN2CCC(c3cccc(OCc4ccc(F)cc4F)n3)CC2)nc2ccc(C(=O)O)cc21
Data returned: 8.62

###

Target: human GLP-1R (Homo sapiens, UniProt P43220, G168S)
Test: CHO GLP-1R Clone H6—Assay 1: HTRF cAMP cell-based functional agonist assay (high GLP-1R density)
Details: read-out: Assay 1 EC50; CHO GLP-1R Clone H6, cAMP HTRF; geometric mean
OBSERVED_PROPERTY: pEC50
In plain terms, pEC50 is the concentration in mol/L turned into minus its base-10 logarithm.

Data request: Name the reported pEC50 value associated with the compound COCCn1c(CN2CCC(c3cccc(OCc4cc(F)c(Cl)cc4F)n3)CC2)nc2ccc(C(=O)O)cc21 [Example 8A-03]
Data returned: 7.74

Data request: Would you mind doing Cn1cncc1Cn1c(CN2CCC(c3cccc(OCc4ccc(C#N)cc4F)n3)CC2)nc2ccc(C(=O)O)nc21 [Example 10A-76] as well?
Data returned: 8.54

Data request: // same read-out, input: COCCn1c(CN2CCC(c3cccc(OCc4ccc(Cl)cc4F)n3)CC2)nc2ccc(C(=O)O)cc21 [Example 1A-02]
Data returned: 7.80

Data request: Try N#Cc1ccc(COc2cccc(N3CCN(Cc4nc5ccc(C(=O)O)nc5n4C[C@@H]4CCO4)CC3)n2)c(F)c1 [Example 10A-77] next.
Data returned: 9.02

Data request: Now try O=C(O)c1ccc2nc(CN3CCC(c4cccc(OCc5ccc(Cl)cc5F)n4)CC3)n(CCN3CCOC3=O)c2c1 [Example 11A-20] .
Data returned: 7.82

###

Give Emax for every item shown.
Target: human GLP-1R (Homo sapiens, UniProt P43220, G168S)
Assay: CHO GLP-1R Clone H6—Assay 1: HTRF cAMP cell-based functional agonist assay (high GLP-1R density)
Settings: read-out: Assay 1 Emax (%), CHO GLP-1R Clone H6; relative to saturating concentration of full agonist GLP-1 (1 μM); arithmetic mean
Answer with a number only, understood to be in %.

Data request: Query the reported Emax for human GLP-1R (Homo sapiens, UniProt P43220, G168S); item: COCCn1c(CN2CCN(c3nc(OCc4ccc(Cl)cc4F)ccc3F)CC2)nc2ccc(C(=O)O)cc21
Data returned: 75

Data request: // same read-out, input: O=C(O)c1ccc2nc(CN3CCC(c4cccc(OCc5ccc(Cl)cc5F)n4)CC3)n(C[C@@H]3CCO3)c2n1
Data returned: 73

Data request: Same thing, different compound: COCCn1cnnc1Cn1c(CN2CCC(c3cccc(OCc4ccc(Cl)cc4F)n3)CC2)nc2ccc(C(=O)O)cc21 [Example 11A-19]
Data returned: 83

Data request: Also, COCCn1c(CN2CCN(c3cccc(OCc4ccc(C#N)cc4)n3)C[C@@H]2C)nc2ccc(C(=O)O)cc21 [Example 12A-08] please.
Data returned: 89

Data request: One more compound: O=C(O)c1ccc2nc(CN3CCC(c4cccc(OCc5ccc(Cl)cc5F)n4)CC3)n(CCc3c[nH]cn3)c2c1 [Example 11A-41]
Data returned: 74

Data request: What would you report for COCCn1c(CN2CCN(c3nc(OCc4ccc(Cl)cc4F)ccc3F)C[C@@H]2C)nc2ccc(C(=O)O)cc21 ?
Data returned: 84

Data request: Next compound: N#Cc1ccc(COc2cccc(N3CCN(Cc4nc5ccc(C(=O)O)cc5n4Cc4cnco4)CC3)n2)c(F)c1 [Example 10A-61]
Data returned: 74

###

Target: human GLP-1R (Homo sapiens, UniProt P43220, G168S)
Test: CHO GLP-1R Clone H6—Assay 1: HTRF cAMP cell-based functional agonist assay (high GLP-1R density)
Conditions: read-out: Assay 1 Emax (%), CHO GLP-1R Clone H6; relative to saturating concentration of full agonist GLP-1 (1 μM); arithmetic mean
OBSERVED_PROPERTY: Emax (%)
Kindly answer with a numeric value in %, unit omitted.

Data request: Entry CCc1noc(Cn2c(CN3CCC(c4cccc(OCc5ccc(Cl)cc5F)n4)CC3)nc3ccc(C(=O)O)cc32)n1 [Example 10A-52] : reported Emax = ?
Data returned: 79

Data request: Repeat for the following molecule: O=C(O)c1ccc2nc(CN3CCC(c4cccc(OCc5ccc(Cl)cc5F)n4)CC3)n(Cc3c[nH]nn3)c2c1 [Example 11A-23]
Data returned: 78

Data request: Moving on to CCOC(C)Cn1c(CN2CCC(c3cccc(OCc4ccc(Cl)cc4F)n3)CC2)nc2ccc(C(=O)O)cc21 (centres unmarked) [Example 11A-18]
Data returned: 80

Data request: And then CN1CCC1Cn1c(CN2CCC(c3cccc(OCc4ccc(Cl)cc4F)n3)CC2)nc2ccc(C(=O)O)cc21 (centres unmarked) [Example 10A-79] , what is it?
Data returned: 80

Data request: Then this molecule: CCn1ccnc1Cn1c(CN2CCC(c3cccc(OCc4ccc(Cl)cc4F)n3)CC2)nc2ccc(C(=O)O)cc21 [Example 11A-39]
Data returned: 80

Data request: Item: COCCn1c(CN2CCN(c3ccc(F)c(OCc4ccc(Cl)cc4F)n3)C[C@@H]2C)nc2ccc(C(=O)O)cc21
Data returned: 82

Data request: Try this molecule next: COC(C)(C)Cn1c(CN2CCC(c3cccc(OCc4ccc(Cl)cc4F)n3)CC2)nc2ccc(C(=O)O)cc21 [Example 11A-22]
Data returned: 82

Data request: Try COCCn1c(CN2CCN(c3ccc(F)c(OCc4ccc(C#N)cc4)n3)C[C@@H]2C)nc2ccc(C(=O)O)cc21 next.
Data returned: 81

###

Molecular target: human GLP-1R (Homo sapiens, UniProt P43220, G168S)
Experiment: CHO GLP-1R Clone H6—Assay 1: HTRF cAMP cell-based functional agonist assay (high GLP-1R density)
Settings: read-out: Assay 1 Emax (%), CHO GLP-1R Clone H6; relative to saturating concentration of full agonist GLP-1 (1 μM); arithmetic mean
OBSERVED_PROPERTY: Emax (%)
Answer with a number only, understood to be in %.

Data request: Entry under review: COCCn1c(CN2CCC(c3cccc(OCc4cc(F)c(Cl)cc4F)n3)CC2)nc2ccc(C(=O)O)cc21 [Example 8A-03] . Reported Emax?
Data returned: 84

Data request: Next record, please: Cn1cc(Cn2c(CN3CCC(c4cccc(OCc5ccc(Cl)cc5F)n4)CC3)nc3ccc(C(=O)O)cc32)nn1 [Example 11A-36]
Data returned: 79

Data request: Thanks! And N#Cc1ccc(COc2cccc(N3CCN(Cc4nc5ccc(C(=O)O)cc5n4Cc4ncco4)CC3)n2)c(F)c1 [Example 10A-34] ?
Data returned: 80

Data request: Query CC(c1nncn1C)n1c(CN2CCC(c3cccc(OCc4ccc(Cl)cc4F)n3)CC2)nc2ccc(C(=O)O)cc21 (centres unmarked) [Example 11A-52] next
Data returned: 86

Data request: Can you check Cn1nccc1Cn1c(CN2CCC(c3cccc(OCc4ccc(Cl)cc4F)n3)CC2)nc2ccc(C(=O)O)cc21 [Example 11A-21] next?
Data returned: 82

###

For each record, write down the corresponding Emax.
Target: human GLP-1R (Homo sapiens (Human), UniProt P43220, L260F)
Sequence (P43220 24-463 L260F): as the sequence (P43220 24-463 G168S limits assumed) above, with S145G, L237F counted along it
Assay: CHO GLP-1R Clone C6—Assay 2: HTRF cAMP cell-based functional agonist assay (low GLP-1R density)
Conditions: CHO GLP-1R Clone C6; relative to saturating concentration of full agonist GLP-1 (1 μM); arithmetic mean; read-out: Assay 2 Emax (%)
Write the answer as a number in %, unit excluded.

Data request: # query: Emax of entry Cn1cncc1Cn1c(CN2CCC(c3cccc(OCc4ccc(Cl)cc4F)n3)CC2)nc2ccc(C(=O)O)cc21 [Example 11A-70]
Data returned: 89

Data request: Request: O=C(O)c1ccc2nc(CN3CCC(c4cccc(OCc5ccc(Cl)cc5F)n4)CC3)n(CCC(F)(F)F)c2c1 [Example 11A-73]
Data returned: 80

Data request: Record: C[C@H]1CN(c2cccc(OCc3ccc(Cl)cc3F)n2)CCN1Cc1nc2ccc(C(=O)O)cc2n1Cc1cocn1 [Example 10A-13]
Data returned: 75

Data request: What do we get for COCCn1c(CN2CCN(c3cccc(OCc4ccc(Cl)cc4F)n3)C[C@H]2C)nc2ccc(C(=O)O)cc21 [Example 12A-11] ?
Data returned: 100

Data request: Request: C[C@H]1CN(c2cccc(OCc3ccc(C#N)cc3F)n2)CCN1Cc1nc2ccc(C(=O)O)cc2n1Cc1cnco1 [Example 10A-17]
Data returned: 85

Data request: Ok, now O=C(O)c1ccc2nc(CN3CCC(c4cccc(OCc5ccc(F)cc5F)n4)CC3)n(C[C@@H]3CCO3)c2c1 [Example 10A-05]
Data returned: 83

Data request: Consider next the compound COCCn1c(CN2CCN(c3nc(OCc4ccc(Cl)cc4F)ccc3F)C[C@@H]2C)nc2ccc(C(=O)O)cc21 in the same way.
Data returned: 70

Data request: Do the same for COCCn1c(CN2CCC(c3cccc(OCc4ccc(Cl)cc4F)n3)CC2)nc2ncc(C(=O)O)nc21 please
Data returned: 110

Data request: And for O=C(O)c1ccc2nc(CN3CCC(c4cccc(OCc5ccc(Cl)cc5F)n4)CC3)n(CC3CCC3)c2c1 [Example 11A-16] ?
Data returned: 75

Data request: Also COCCn1c(CN2CCC(c3cccc(OCc4ccc(C#N)cc4)n3)CC2)nc2ccc(C(=O)O)c(F)c21 , if possible.
Data returned: 91

Data request: And then Cn1c(CN2CCC(c3cccc(OCc4ccc(Cl)cc4)n3)CC2)nc2ccc(C(=O)O)cc21 , what is it?
Data returned: 71

Data request: Could you do the same for O=C(O)c1ccc2nc(CN3CCN(c4cccc(OCc5ccc(Cl)cc5F)n4)CC3)n(Cc3ncco3)c2c1 [Example 10A-33] , please?
Data returned: 91

Data request: // query: CCn1cncc1Cn1c(CN2CCN(c3cccc(OCc4ccc(C#N)cc4F)n3)CC2)nc2ccc(C(=O)O)cc21 [Example 10A-35]
Data returned: 93

Data request: Entry COCCn1c(CN2CCC(c3cccc(OCc4ccc(C#N)cc4)n3)CC2)nc2cc(F)c(C(=O)O)cc21 please
Data returned: 92

Data request: Please give the result for CN1CCC[C@@H]1Cn1c(CN2CCC(c3cccc(OCc4ccc(Cl)cc4F)n3)CC2)nc2ccc(C(=O)O)cc21 [Example 11A-34] too.
Data returned: 95

Data request: Next compound: O=C(O)c1ccc2nc(CN3CCC(c4cccc(OCc5ccc(Cl)cc5F)n4)CC3)n([C@H]3CCOC3)c2c1 [Example 10A-71]
Data returned: 85

Data request: One more compound: N#Cc1ccc(COc2cccc(C3CCN(Cc4nc5ccc(C(=O)O)nc5n4Cc4cnco4)CC3)n2)c(F)c1 [Example 10A-24]
Data returned: 94

Data request: Okay, and CCn1nncc1Cn1c(CN2CCN(c3cccc(OCc4ccc(C#N)cc4F)n3)CC2)nc2ccc(C(=O)O)cc21 [Example 10A-62] ?
Data returned: 97

Data request: Item: N#Cc1ccc(COc2cccc(N3CCN(Cc4nc5ccc(C(=O)O)cc5n4C[C@@H]4CCO4)CC3)n2)c(F)c1
Data returned: 94

Data request: Similarly, O=C(O)c1cc2c(cn1)nc(CN1CCC(c3cccc(OCc4ccc(Cl)cc4F)n3)CC1)n2C[C@@H]1CCO1 ?
Data returned: 84

Data request: Continue with C[C@H]1CN(c2cccc(OCc3ccc(Cl)cc3F)n2)CCN1Cc1nc2ccc(C(=O)O)nc2n1C[C@@H]1CCO1 [Example 10A-10]
Data returned: 100
